TARGET OR TEST SYSTEM: ADP-ribosylation factor GTPase-activating protein 1 (Homo sapiens, UniProt Q8N6T3)
Sequence (Q8N6T3 whole entry): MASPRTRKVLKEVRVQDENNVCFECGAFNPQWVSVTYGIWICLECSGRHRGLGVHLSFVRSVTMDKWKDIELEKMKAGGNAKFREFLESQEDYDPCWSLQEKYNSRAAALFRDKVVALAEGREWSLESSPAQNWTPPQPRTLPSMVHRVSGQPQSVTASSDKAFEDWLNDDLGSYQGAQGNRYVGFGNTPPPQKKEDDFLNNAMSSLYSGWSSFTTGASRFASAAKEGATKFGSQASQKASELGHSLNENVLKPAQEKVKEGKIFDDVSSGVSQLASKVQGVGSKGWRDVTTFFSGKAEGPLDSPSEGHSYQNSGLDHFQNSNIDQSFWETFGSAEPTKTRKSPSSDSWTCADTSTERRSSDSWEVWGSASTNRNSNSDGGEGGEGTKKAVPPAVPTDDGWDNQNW
TEST DESCRIPTION: Inhibition of ARFGAP1 (unknown origin)
pEC50: −log10 of the molar value.
PROPERTY MEASURED: pEC50

{"ITEM SMILES": "OC[C@H](Cc1ccccc1)Nc1nc(Oc2ccc3c(c2)CCC3)nc2c1ncn2Cc1ccc(-c2ccccc2)cc1", "PROPERTY MEASURED": "pEC50", "REPORTED RESULT": 6.30}
